The reported measurements were obtained from the supplement of paper PMC7877785.

- assay.method.text: self-splicing fitness, log relative to wild type (ln ratio); higher = more splicing; Tetrahymena group I intron in knt gene, E. coli kanamycin selection, DiMSum; sequences stand for … in CUCUCU…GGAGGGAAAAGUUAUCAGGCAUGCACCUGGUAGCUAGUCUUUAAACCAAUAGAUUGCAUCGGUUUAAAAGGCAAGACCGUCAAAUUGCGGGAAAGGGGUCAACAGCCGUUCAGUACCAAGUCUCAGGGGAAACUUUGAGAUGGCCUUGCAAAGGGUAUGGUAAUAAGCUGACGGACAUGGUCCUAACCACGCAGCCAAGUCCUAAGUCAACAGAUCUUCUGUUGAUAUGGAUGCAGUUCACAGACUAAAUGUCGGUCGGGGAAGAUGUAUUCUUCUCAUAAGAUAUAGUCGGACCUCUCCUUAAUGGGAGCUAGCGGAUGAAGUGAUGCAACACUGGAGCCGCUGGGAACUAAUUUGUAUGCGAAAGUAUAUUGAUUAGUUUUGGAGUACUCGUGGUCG;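 also: selection with 25 µg/mL kanamycin versus none on LB agar overnight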
- experimental.setup: 30 °C
Here the recorded self-splicing fitness (ln) is given for each entry.
Output: the number by itself.

The following sequences have reported results that may help.
>  <sequence.record>
AGCCAGCAAUAUUACGUGUC

>  <self-splicing fitness (ln)>
-3.17

$$$$
>  <sequence.record>
AGAAAGCAAUAUUACGUGGU

>  <self-splicing fitness (ln)>
-4.26

$$$$
>  <sequence.record>
GGUGAGCAAUAUUACGGGCG

>  <self-splicing fitness (ln)>
-1.39

$$$$

Let's switch to this sequence now.
Entry UAUCAGCAAUAUUACGUCAU : reported self-splicing fitness (ln) = ?
-1.88

---

- assay.method.text: self-splicing fitness, log relative to wild type (ln ratio); higher = more splicing; Tetrahymena group I intron in knt gene, E. coli kanamycin selection, DiMSum; sequences stand for … in CUCUCU…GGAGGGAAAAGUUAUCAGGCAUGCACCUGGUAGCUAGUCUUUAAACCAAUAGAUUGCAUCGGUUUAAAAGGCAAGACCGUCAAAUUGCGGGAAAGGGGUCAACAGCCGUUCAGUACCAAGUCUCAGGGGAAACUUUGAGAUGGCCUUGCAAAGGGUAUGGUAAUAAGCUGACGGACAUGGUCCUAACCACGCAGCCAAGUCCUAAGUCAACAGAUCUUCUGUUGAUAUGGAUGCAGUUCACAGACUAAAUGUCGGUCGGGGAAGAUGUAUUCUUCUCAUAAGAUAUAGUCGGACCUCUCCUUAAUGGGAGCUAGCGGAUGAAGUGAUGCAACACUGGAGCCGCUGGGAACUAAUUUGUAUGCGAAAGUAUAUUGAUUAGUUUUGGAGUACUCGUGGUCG
- experimental.setup: 37 °C
I'd appreciate it if you could label each record using self-splicing fitness (ln) and these ranges: low (below -2), middle (-2 to below -0.8), high (-0.8 or more)

Please report the category associated with AAAUAGCAAUAUUACGACGC , nothing else.
high

---

- assay.method.text: self-splicing fitness, log relative to wild type (ln ratio); higher = more splicing; Tetrahymena group I intron in knt gene, E. coli kanamycin selection, DiMSum; sequences stand for … in CUCUCU…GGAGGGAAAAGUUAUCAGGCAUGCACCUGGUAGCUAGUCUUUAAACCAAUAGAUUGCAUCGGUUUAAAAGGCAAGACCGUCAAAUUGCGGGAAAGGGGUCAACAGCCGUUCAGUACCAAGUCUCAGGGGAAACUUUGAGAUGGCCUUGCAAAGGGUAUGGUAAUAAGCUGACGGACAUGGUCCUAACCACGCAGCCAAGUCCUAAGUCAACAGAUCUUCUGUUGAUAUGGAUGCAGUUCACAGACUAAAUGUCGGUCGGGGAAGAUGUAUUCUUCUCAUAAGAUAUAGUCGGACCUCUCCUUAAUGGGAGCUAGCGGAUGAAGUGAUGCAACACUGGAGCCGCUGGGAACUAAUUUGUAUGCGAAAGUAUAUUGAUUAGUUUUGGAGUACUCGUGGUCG
- experimental.setup: 37 °C
// label = Met if self-splicing fitness (ln) is not less than -1, otherwise Not met

Take a look at these entries with their results.
>  <sequence.record>
CAUGAGCAAUAUUACGAGUA

>  <category>
Not met

$$$$
>  <sequence.record>
GCCUAGCAAUAUUACGGCGU

>  <category>
Met

$$$$
>  <sequence.record>
AGUAAGCAAUAUUACGCGGU

>  <category>
Not met

$$$$
>  <sequence.record>
UUACAGCAAUAUUACGAGGA

>  <category>
Met

$$$$
>  <sequence.record>
CUCAAGCAAUAUUACGCUCA

>  <category>
Not met

$$$$
>  <sequence.record>
UAACAGCAAUAUUACGUGAG

>  <category>
Met

$$$$
>  <sequence.record>
GUUCAGCAAUAUUACGGGUA

>  <category>
Met

$$$$
>  <sequence.record>
UCAAAGCAAUAUUACGGCCU

>  <category>
Not met

$$$$

# bool: self-splicing fitness (ln) of GCUUAGCAAUAUUACGGGCU >= -1
Not met

Determine whether measured self-splicing fitness (ln) meets or exceeds -1 for UGACAGCAAUAUUACGCCAG
Met

Does self-splicing fitness (ln) meet or surpass -1 for AUUAAGCAAUAUUACGAGAC ?
Not met

Is reported self-splicing fitness (ln) greater than or equal to -1 here: GGAGAGCAAUAUUACGCGGA
Not met

Would you say UGCUAGCAAUAUUACGUGGU shows self-splicing fitness (ln) at minimum -1?
Not met

Could you please find out whether CGUUAGCAAUAUUACGAAUU has self-splicing fitness (ln) that meets -1 or exceeds it?
Not met

Say whether CGUCAGCAAUAUUACGAGCU shows self-splicing fitness (ln) of -1 or more.
Not met

Given the entry GAGGAGCAAUAUUACGUCUA , answer whether its self-splicing fitness (ln) meets or surpasses -1.
Met

Evaluate CAGCAGCAAUAUUACGAACG : self-splicing fitness (ln) at minimum -1?
Met
